# Tested on: NCI-H23 lung
# METHOD: NCI tumour cell line growth inhibition, 48 h; in the data active = GI50 below about 0.43 µM; inactive = the rest
Answer with one of the outcomes y (active), n (inactive)

# count of solved cases: 3
* NC(=O)Oc1cc(OC(N)=O)cc(N(CCCl)CCCl)c1 | n
* O=C1/C(=C/C(Cl)=C/c2ccccc2)SC(=S)N1CCc1ccc(O)cc1 | n
* CCOC(=O)c1c(Cl)c2c(n1Cc1cc(OC)cc(OC)c1)-c1oncc1CCC2 | n

Q: Which outcome did this test record for the compound Cc1ccc(NC(=O)c2ccnc(N3CCCC3)c2)cc1-c1ccc(C(=O)NCC2CC2)cc1 ?
Ans: n

Q: Which outcome did this test record for the compound COc1ccc(Nc2ccnc(NCCCNc3ccnc4cc(Cl)ccc34)n2)cc1 ?
Ans: n

Q: Which outcome did this test record for the compound COc1ccc(-c2nc(-c3nc4cc(C)c(C)cc4[nH]3)cc3c2[nH]c2ccccc23)cc1 ?
Ans: n

Q: Which outcome did this test record for the compound CCNc1nc(N2CC(=O)Nc3cc(OC)ccc32)c2ccccc2n1 ?
Ans: y

Q: Which outcome did this test record for the compound COc1cc2c(cc1OC)[C@@]1(C)C(=O)c3cc4c(cc3[C@H]1N(C)C2=O)OCO4 ?
Ans: n

====

# System: SN12C renal
# METHOD: NCI tumour cell line growth inhibition, 48 h
PROPERTY: TGI

Sample records with TGI:
- CC1=CCC[C@]2(C)C1=CC(=O)O[C@H]2c1ccoc1: > 100 µM
- Cc1nc2ccc(N=NN(C)C)cc2[nH]1: > 100 µM
- Cc1ccc(NC(=O)c2ccnc(N3CCCC3)c2)cc1-c1ccc(C(=O)NCC2CC2)cc1: > 25 µM
- COc1ccc(NC(C)=O)cc1N1C(=O)/C(=C\c2cc(OC)c(OC)c(OC)c2)S(=O)(=O)C1c1ccccc1 (stereo unspecified): > 100 µM
- Cc1ncc([N+](=O)[O-])n1CCNC(=O)CCn1ccnc1[N+](=O)[O-]: > 100 µM
- N#CC(C#N)=C1CCCCc2ccc([N+](=O)[O-])cc21: > 100 µM

Could I get TGI for every one of these entries?
1. Nc1nc(N)c(-c2ccc(Cl)cc2)c(CCC(=O)Nc2cccc(C(F)(F)F)c2)n1
2. CCCCCNC1=CC(=O)c2ccccc2C1=O
3. C=CCN(N=O)C(=O)N(CCC)CCCCC(NC(C)=O)C(=O)NCc1ccccc1 (stereo unspecified)
4. Cc1ccc(S(=O)(=O)n2cnc(CC(NC(=O)C3CCC(=O)N3C(=O)OCc3ccccc3)C(=O)N3CCCC3C(=O)NN)c2)cc1 (stereo unspecified)
5. COC(=O)c1nc2c3c(cccc3c1C(=O)OC)Nc1ccccc1-2
6. CCN(CC)c1ccc2c(c1)N=C1N=CC=CN1C2(c1ccc(N(C)C)cc1)c1ccc(N(C)C)cc1

Ans:
["> 100 µM", "> 100 µM", "> 100 µM", "> 100 µM", "> 100 µM", "19.3 µM"]

Could I get TGI for every one of these entries?
1. O=C(/C=C/c1ccccc1)CCC1C(=O)NC(=O)NC1=O
2. Cc1ccnc2c1ccc1nc3ccccc3n12
3. COC(=O)c1c2c(c(C)[n+]([O-])c1C)C(=O)C(NCc1ccc(F)c(F)c1)=CC2=O

Ans:
1. > 100 µM
2. > 100 µM
3. 4.32 µM
